Test: Volume of distribution at steady state in C57BL/6 mouse at 0.5 mg/kg, iv
Assay type: ADME, organism-based
Conditions: in vivo
Item-by-item account of Vdss
Readout: Vdss (L/kg)

{"Smiles Notation": "C[C@@H](C1CC1)N1Cc2cc(-c3ccn4nc(N)c(C(=O)N[C@H]5CC[C@@](C)(O)CC5)c4n3)cc(OC(F)F)c2C1=O", "Readout": "Vdss", "Meas Value": 1.66}
{"Smiles Notation": "C[C@@H](C1CC1)N1Cc2cc(-c3ccn4nc(N)c(C(=O)N[C@H]5CC[C@@](C)(O)CC5)c4n3)cc(OC(F)(F)F)c2C1=O", "Readout": "Vdss", "Meas Value": 2.09}

Cited source: ChEMBL document CHEMBL5154644
